- Tested On: Uracil nucleotide/cysteinyl leukotriene receptor (Homo sapiens)
- Assay Summary: Agonist activity at recombinant human GPR17 short isoform transfected in human 1321N1 cells assessed as mobilization of intracellular Ca2+ after 20 mins by oregon green 488 BAPTA-1/AM dye-based fluorescence assay
- Assay type: functional, cell-based
Readout Label: EC50 (µM)
Field: numeric (µM). Do not append units.

[Q] Answer with reported EC50 of O=C(O)CCc1c(C(=O)O)n(CCC(=O)O)c2cc(Cl)cc(Cl)c12
[A] 5.25

###

- Tested On: Uracil nucleotide/cysteinyl leukotriene receptor (Homo sapiens, UniProt Q13304)
- Sequence (Q13304 whole entry, canonical isoform): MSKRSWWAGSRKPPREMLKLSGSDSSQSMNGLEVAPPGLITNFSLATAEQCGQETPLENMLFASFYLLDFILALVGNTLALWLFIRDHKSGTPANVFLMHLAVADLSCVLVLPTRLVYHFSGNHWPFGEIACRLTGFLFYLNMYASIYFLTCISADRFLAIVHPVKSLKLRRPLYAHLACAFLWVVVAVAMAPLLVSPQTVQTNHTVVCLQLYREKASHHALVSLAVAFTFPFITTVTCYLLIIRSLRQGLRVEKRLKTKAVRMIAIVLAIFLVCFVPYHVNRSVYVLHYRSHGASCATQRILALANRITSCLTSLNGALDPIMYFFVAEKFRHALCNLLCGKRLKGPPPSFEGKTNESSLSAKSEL
- Assay Summary: Agonist activity at recombinant human GPR17 short isoform transfected in CHO cells assessed as mobilization of intracellular Ca2+ after 20 mins by oregon green 488 BAPTA-1/AM dye-based fluorescence assay
- Assay type: functional, cell-based
Readout Label: pEC50
Kindly note that pEC50 refers to -log10 of the concentration in mol/L and answer with the value alone.

O=C(O)CCc1c(C(=O)O)n(CCC(=O)O)c2cc(Cl)cc(Cl)c12 | 6.73

[Q] Answer with reported pEC50 of O=C(O)CCc1c(C(=O)O)[nH]c2cc(I)ccc12
[A] 6.15

[Q] Answer with reported pEC50 of O=C(O)CCc1c(C(=O)O)[nH]c2cc(-c3ccccc3)ccc12
[A] 6.14

[Q] Answer with reported pEC50 of O=C(O)CCc1c(C(=O)O)[nH]c2cc(I)cc(I)c12
[A] 5.32

[Q] Answer with reported pEC50 of O=C(O)CCc1c(C(=O)O)[nH]c2cc(Br)ccc12
[A] 5.50

[Q] Answer with reported pEC50 of O=C(O)CCc1c(C(=O)O)[nH]c2cc(-c3ccccc3)cc(-c3ccccc3)c12
[A] 5.52
